conditions: in water, 303.15 K
experimental_endpoint: solubility (mole fraction)

N[C@@H](Cc1ccccc1)C(=O)O : 0.00312

====

details: in water, 293.15 K
experimental_endpoint: solubility (mole fraction)

N[C@@H](Cc1ccccc1)C(=O)O : 0.00247

====

settings: in water, 298.15 K
experimental_endpoint: solubility (mole fraction)

N[C@@H](Cc1ccccc1)C(=O)O : 0.00277
